The origin of these recorded values is ChEMBL document CHEMBL3091347.

Test: Lipophilicity, log P of the compound
Conditions: octanol/water
logP under -3 gets Yes, anything at or over -3 gets No.

compound	class
NNC(=O)CN1CSC(N)=N1	Yes
NNC(=O)c1ccc(O)cc1	No
NNC(=O)c1ccc(N)cc1	No

Consider `NNC(=O)c1nccnc1C(=O)NN` . Does its logP lie strictly below -3?
Yes

Consider O=C(NNC(O)C(Cl)(Cl)Cl)c1ccncc1 (stereo not given) . Does its logP lie strictly below -3?
No

###

Test system: Mycobacterium tuberculosis
Assay: Antitubercular activity against Mycobacterium tuberculosis
Assay type: functional
test readout: log(1/MIC)
Please give only the number in your answer, with no unit.

Guide cases for log(1/MIC), answers given:
compound	measured on	log(1/MIC)
CC(=O)Nc1cc(C(=O)NN)ccn1	Mycobacterium tuberculosis	-2.62
CN(C)NC(=O)c1ccco1	Mycobacterium tuberculosis	-2.48
NNC(=O)c1ccccc1[N+](=O)[O-]	Mycobacterium tuberculosis	-2.48
CCN(CC)CCN(C)c1ccc(/C=N/NC(=O)c2ccncc2)cc1	Mycobacterium tuberculosis	1.1
CC(=O)NNC(C)=O	Mycobacterium tuberculosis	-2.78

Let us move to another entry and its log(1/MIC).
Kindly note the recorded log(1/MIC) for `NNC(=O)c1ccnc(F)c1` , which is -1.61
